TARGET_OR_SYSTEM: BRM (Homo sapiens)
Sequence (P51531 whole entry): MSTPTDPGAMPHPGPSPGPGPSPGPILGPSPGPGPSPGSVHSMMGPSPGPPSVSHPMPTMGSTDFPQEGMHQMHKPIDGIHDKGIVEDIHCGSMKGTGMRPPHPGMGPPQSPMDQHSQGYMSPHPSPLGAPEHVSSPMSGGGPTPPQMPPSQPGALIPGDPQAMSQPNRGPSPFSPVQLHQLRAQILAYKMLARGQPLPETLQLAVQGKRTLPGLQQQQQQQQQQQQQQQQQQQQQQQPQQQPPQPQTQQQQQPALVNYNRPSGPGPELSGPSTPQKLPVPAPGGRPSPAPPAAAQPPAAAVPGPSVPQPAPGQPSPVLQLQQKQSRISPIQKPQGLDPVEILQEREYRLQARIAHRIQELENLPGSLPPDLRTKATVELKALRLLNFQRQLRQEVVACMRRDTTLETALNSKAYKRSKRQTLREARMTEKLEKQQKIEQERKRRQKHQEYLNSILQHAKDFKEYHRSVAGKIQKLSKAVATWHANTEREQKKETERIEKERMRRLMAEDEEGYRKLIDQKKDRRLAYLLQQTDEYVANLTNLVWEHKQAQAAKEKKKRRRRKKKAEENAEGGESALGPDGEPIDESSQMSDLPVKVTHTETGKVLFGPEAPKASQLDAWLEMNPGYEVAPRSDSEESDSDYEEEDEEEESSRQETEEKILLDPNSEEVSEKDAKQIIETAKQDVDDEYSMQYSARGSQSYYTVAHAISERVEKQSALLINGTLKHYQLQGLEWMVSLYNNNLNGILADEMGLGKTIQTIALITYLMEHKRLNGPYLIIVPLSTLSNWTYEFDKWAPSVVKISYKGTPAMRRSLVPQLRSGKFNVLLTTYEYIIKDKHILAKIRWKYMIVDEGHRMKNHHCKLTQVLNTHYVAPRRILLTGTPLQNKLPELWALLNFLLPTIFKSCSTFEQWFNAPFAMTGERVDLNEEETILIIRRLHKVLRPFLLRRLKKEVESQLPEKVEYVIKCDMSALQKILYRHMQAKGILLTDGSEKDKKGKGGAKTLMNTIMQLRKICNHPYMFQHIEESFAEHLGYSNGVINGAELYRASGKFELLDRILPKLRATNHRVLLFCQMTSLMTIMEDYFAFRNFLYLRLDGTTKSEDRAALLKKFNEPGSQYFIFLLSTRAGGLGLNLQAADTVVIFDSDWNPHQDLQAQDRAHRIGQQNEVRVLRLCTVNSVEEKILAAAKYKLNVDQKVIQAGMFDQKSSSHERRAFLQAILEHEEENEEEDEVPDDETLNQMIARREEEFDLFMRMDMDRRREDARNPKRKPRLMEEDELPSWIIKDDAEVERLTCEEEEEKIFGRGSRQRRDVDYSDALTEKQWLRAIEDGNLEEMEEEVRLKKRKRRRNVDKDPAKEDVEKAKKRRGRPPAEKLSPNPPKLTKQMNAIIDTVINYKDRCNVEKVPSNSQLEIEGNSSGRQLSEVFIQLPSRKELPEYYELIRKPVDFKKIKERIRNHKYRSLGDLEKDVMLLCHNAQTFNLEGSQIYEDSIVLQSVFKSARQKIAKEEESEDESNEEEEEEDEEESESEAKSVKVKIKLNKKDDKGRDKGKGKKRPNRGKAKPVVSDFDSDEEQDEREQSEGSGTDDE
PROTOCOL_DESCRIPTION: Immunofluorescence assay for BRM degradation in SW1573 cells
Assay type: cell-based
Parameters: treated overnight at 4° C. with either BRM primary antibody (Cell signaling Cat #11966) or BRG primary antibody; endogenous in cells; host or cells: SW1573
CONDITION_NOTES: 20 hours incubation, immunofluorescence mean nuclear signal, read-out: BRM IF Degradation IC50
MEASURED_PARAMETER: DC50

Which DC50 is reported with BRM (Homo sapiens) for this entry: `N#CCC1CN(CC#Cc2cc(N3C4CCC3CN(c3cc(-c5ccccc5O)nnc3N)C4)ccn2)C1` ?
< 10 nM

Also, Nc1nnc(-c2ccccc2O)cc1N1CC2CCC(C1)N2c1ccnc(C#CCN2CCC23CCCOC3)c1 (stereo not shown) please.
< 10 nM

Let us now turn to `Nc1nnc(-c2ccccc2O)cc1N1CC2CCC(C1)N2c1ccnc(C#CCN2CCC23CCC3)c1`
10 to 100 nM

What about this compound? `Nc1nnc(-c2ccccc2O)cc1N1CC2CCC(C1)N2c1ccnc(C#CCN2C[C@@H]3C[C@H]2[C@H]2C[C@@H]32)c1`
< 10 nM

Can you handle Nc1nnc(-c2ccccc2O)cc1N1CC2CCC(C1)N2c1ccnc(C#CCN2CCN3CCCC3C2)c1 (stereo not shown) next?
10 to 100 nM

// same read-out, input: CC1(O)CCN(CC#Cc2cc(N3C4CCC3CN(c3cc(-c5ccccc5O)nnc3N)C4)ccn2)C1 (stereo not shown)
< 10 nM

And for `Nc1nnc(-c2ccccc2O)cc1N1CC2CCC(C1)N2c1ccnc(C#CCN2CC(F)(CO)C2)c1` ?
> 100 nM

###

TARGET_OR_SYSTEM: BRM (Homo sapiens)
PROTOCOL_DESCRIPTION: Immunofluorescence assay for BRM degradation in SW1573 cells
Format: cell-based
Set-up: treated overnight at 4° C. with either BRM primary antibody (Cell signaling Cat #11966) or BRG primary antibody; endogenous in cells; host or cells: SW1573
CONDITION_NOTES: 20 hours incubation, immunofluorescence mean nuclear signal, read-out: BRM IF Degradation IC50
MEASURED_PARAMETER: DC50

Using the record for Nc1nnc(-c2ccccc2O)cc1N1CC2CCC(C1)N2c1ccnc(C#CCN2CCOC(CF)C2)c1 (stereo not shown) , report its DC50.
10 to 100 nM

What do you have for `Nc1nnc(-c2ccccc2O)cc1N1CC2CCC(C1)N2c1ccnc(C#CCN2CCCC2)c1` ?
< 10 nM

And the next one, Nc1nnc(-c2ccccc2O)cc1N1CC2CCC(C1)N2c1ccnc(C#CCN2CCOC3CCNCC32)c1 (stereo not shown) ?
> 100 nM

Nc1nnc(-c2ccccc2O)cc1N1CC2CCC(C1)N2c1ccnc(C#CCN2CCCCC(O)(CF)C2)c1 (stereo not shown) , same question.
10 to 100 nM

###

I'd be grateful if you could share measured DC50 for these entries.
TARGET_OR_SYSTEM: UniProt P51531
PROTOCOL_DESCRIPTION: Immunofluorescence assay for BRM degradation in SW1573 cells
Assay type: cell-based
Set-up: treated overnight at 4° C. with either BRM primary antibody (Cell signaling Cat #11966) or BRG primary antibody; endogenous in cells; host or cells: SW1573
CONDITION_NOTES: 20 hours incubation, immunofluorescence mean nuclear signal, read-out: BRM IF Degradation IC50

Could you tell me which DC50 is on file for Nc1nnc(-c2ccccc2O)cc1N1CC2CCC(C1)N2c1ccnc(C#CCN2CC(CO)(c3ccccc3)C2)c1 [Compound 179] ?
10 to 100 nM

Proceed to CC[C@H]1COCCN1CC#Cc1cc(N2C3CCC2CN(c2cc(-c4ccccc4O)nnc2N)C3)ccn1 [Compound 64]
10 to 100 nM

Now try Nc1nnc(-c2ccccc2O)cc1N1CC2CCC(C1)N2c1ccnc(C#CCN2CC(C3CC3)C2)c1 [Compound 150] .
< 10 nM

// query: COCC1(O)CCCN(CC#Cc2cc(N3C4CCC3CN(c3cc(-c5ccccc5O)nnc3N)C4)ccn2)CC1 (stereo not shown) [Compound 207]
10 to 100 nM

###

For each entry below, report its Dmax value.
TARGET_OR_SYSTEM: BRG1 (Homo sapiens, UniProt P51532)
Construct: either BRM primary antibody (Cell signaling Cat #11966) or BRG primary antibody (Abcam, ab 110641); endogenous in cells; host or cells: SW1573
Sequence (P51532 whole entry): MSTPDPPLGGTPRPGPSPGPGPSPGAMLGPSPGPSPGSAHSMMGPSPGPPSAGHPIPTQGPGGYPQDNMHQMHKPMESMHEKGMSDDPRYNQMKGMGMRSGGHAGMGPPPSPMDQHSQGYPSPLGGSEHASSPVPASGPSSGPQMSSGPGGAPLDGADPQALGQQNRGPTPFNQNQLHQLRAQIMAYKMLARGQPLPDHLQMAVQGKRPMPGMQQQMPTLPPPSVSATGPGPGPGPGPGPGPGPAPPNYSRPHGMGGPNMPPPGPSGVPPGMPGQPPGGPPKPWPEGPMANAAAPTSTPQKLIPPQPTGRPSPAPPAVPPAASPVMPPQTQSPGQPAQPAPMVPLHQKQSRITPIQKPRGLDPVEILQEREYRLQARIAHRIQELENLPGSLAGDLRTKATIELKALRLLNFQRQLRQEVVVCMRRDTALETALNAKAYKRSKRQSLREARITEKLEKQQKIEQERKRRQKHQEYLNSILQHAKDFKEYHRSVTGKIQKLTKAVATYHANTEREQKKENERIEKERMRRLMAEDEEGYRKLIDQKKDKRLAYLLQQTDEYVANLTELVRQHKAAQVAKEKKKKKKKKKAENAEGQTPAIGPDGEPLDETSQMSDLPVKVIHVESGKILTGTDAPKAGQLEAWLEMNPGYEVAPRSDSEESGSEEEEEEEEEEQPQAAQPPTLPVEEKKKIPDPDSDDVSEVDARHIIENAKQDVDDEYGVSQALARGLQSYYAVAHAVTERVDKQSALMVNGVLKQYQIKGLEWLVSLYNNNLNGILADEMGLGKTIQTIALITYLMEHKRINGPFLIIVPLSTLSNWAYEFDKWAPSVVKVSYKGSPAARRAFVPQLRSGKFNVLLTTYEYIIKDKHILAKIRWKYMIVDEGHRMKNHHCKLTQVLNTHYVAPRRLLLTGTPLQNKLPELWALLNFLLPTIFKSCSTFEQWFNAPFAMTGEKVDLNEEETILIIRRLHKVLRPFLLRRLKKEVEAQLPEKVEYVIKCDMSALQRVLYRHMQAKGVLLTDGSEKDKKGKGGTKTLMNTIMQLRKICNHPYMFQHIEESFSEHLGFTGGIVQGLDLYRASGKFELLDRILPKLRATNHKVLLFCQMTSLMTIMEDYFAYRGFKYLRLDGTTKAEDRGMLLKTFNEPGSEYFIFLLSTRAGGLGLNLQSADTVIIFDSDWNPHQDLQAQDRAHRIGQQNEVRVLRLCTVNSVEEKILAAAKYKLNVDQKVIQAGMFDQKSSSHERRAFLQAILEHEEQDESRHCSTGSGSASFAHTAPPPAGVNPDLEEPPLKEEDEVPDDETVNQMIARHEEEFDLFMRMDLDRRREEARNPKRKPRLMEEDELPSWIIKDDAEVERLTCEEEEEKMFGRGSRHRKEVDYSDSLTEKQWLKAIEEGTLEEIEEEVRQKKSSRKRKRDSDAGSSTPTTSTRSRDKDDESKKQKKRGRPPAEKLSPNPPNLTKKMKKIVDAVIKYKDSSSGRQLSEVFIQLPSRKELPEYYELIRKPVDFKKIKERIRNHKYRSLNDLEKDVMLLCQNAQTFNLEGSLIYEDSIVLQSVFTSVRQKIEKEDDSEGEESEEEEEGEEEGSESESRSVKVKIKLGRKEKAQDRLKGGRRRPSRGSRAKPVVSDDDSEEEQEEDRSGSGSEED
PROTOCOL_DESCRIPTION: Immunofluorescence assay for BRG1 degradation in SW1573 cells
Format: cell-based
CONDITION_NOTES: SW1573, 20 h, 20 hours incubation, normalized to a known degrader control, read-out: BRG1 IF Degradation Sinf (%)

For Nc1nnc(-c2ccccc2O)cc1N1CC2CCC(C1)N2c1ccnc(C#CCN2CC3COCC3C2)c1 (stereo not shown) , what is its reported Dmax?
0 to 30%

Proceed to `COC1CN(CC#Cc2cc(N3C4CCC3CN(c3cc(-c5ccccc5O)nnc3N)C4)ccn2)C1`
30 to 70%

Same again, this time with Nc1nnc(-c2ccccc2O)cc1N1CC2CCC(C1)N2c1ccnc(C#CCN2CC3CC3(O)C2)c1 (stereo not shown)
0 to 30%

Follow-up item: Nc1nnc(-c2ccccc2O)cc1N1CC2CCC(C1)N2c1ccnc(C#CCN2CCC3(CCOC3)C2)c1 (stereo not shown)
30 to 70%

Queued: Nc1nnc(-c2ccccc2O)cc1N1CC2CCC(C1)N2c1ccnc(C#CCC2CCCN2)c1 (stereo not shown)
0 to 30%

What about this compound? Nc1nnc(-c2ccccc2O)cc1N1CC2CCC(C1)N2c1ccnc(C#CCN2CC3COCC(C2)C3O)c1 (stereo not shown)
30 to 70%

Cool, now `Nc1nnc(-c2ccccc2O)cc1N1CC2CCC(C1)N2c1ccnc(C#CCN2CC3(C2)CC3(F)F)c1`
0 to 30%

###

TARGET_OR_SYSTEM: BRG1 (Homo sapiens)
Construct: either BRM primary antibody (Cell signaling Cat #11966) or BRG primary antibody (Abcam, ab 110641); endogenous in cells; host or cells: SW1573
PROTOCOL_DESCRIPTION: Immunofluorescence assay for BRG1 degradation in SW1573 cells
Type: cell-based
CONDITION_NOTES: 20 hours incubation, immunofluorescence mean nuclear signal, read-out: BRG1 IF Degradation IC50
Experimental: Example B-2: Immunofluorescence Assay for BRM and BRG1 Degraders SW1573 cells were seeded at 3000 cells/well in 384 well plates. The next day, compounds were added using an Echo dispenser. […] Harmony software (Perking Elmer) was used to quantify the mean nuclear signaling intensity of BRM or BRG signaling per cell in each well. Dose responses were determined from the concentration dependent response of mean nuclear signal intensity with data normalized to a known degrader control. […]
MEASURED_PARAMETER: DC50

For Nc1nnc(-c2ccccc2O)cc1N1CC2CCC(C1)N2c1ccnc(C#CCN2CCCCCC2CO)c1 (stereo not drawn) [Compound 216] , what is its reported DC50?
< 10 nM

Similarly, CC1CCN(CC#Cc2cc(N3C4CCC3CN(c3cc(-c5ccccc5O)nnc3N)C4)ccn2)CCC1(C)O (stereo not drawn) [Compound 239] ?
< 10 nM

Item: Nc1nnc(-c2ccccc2O)cc1N1CC2CCC(C1)N2c1ccnc(C#CCN2CC(C3CCOC3)C2)c1 (stereo not drawn) [Compound 157]
10 to 100 nM

Check Nc1nnc(-c2ccccc2O)cc1N1CC2CCC(C1)N2c1ccnc(C#CC2CNC2)c1 [Compound 6] too.
> 100 nM

# repeat for Nc1nnc(-c2ccccc2O)cc1N1CC2CCC(C1)N2c1ccnc(C#CCN2C[C@H]3OCC[C@H]32)c1 [Compound 161]
10 to 100 nM

Record: N#CC1CCN(CC#Cc2cc(N3C4CCC3CN(c3cc(-c5ccccc5O)nnc3N)C4)ccn2)CC1 [Compound 139]
10 to 100 nM

Can you handle Nc1nnc(-c2ccccc2O)cc1N1CC2CCC(C1)N2c1ccnc(C#CCN2CC3(CCCCO3)C2)c1 [Compound 66] next?
10 to 100 nM

Moving on to Nc1nnc(-c2ccccc2O)cc1N1CC2CCC(C1)N2c1ccnc(C#CCN2CC3CC(CO)CC32)c1 (stereo not drawn) [Compound 217]
10 to 100 nM

Thanks! And Nc1nnc(-c2ccccc2O)cc1N1CC2CCC(C1)N2c1ccnc(C#CCN2CCC3CNCC32)c1 (stereo not drawn) [Compound 146] ?
> 100 nM

Queued: NCCC#Cc1cc(N2C3CCC2CN(c2cc(-c4ccccc4O)nnc2N)C3)ccn1 [Compound 30]
> 100 nM

Thanks! And CC1CN(CC#Cc2cc(N3C4CCC3CN(c3cc(-c5ccccc5O)nnc3N)C4)ccn2)CCC(F)(F)C1 (stereo not drawn) [Compound 212] ?
< 10 nM

// same read-out, input: Nc1nnc(-c2ccccc2O)cc1N1CC2CCC(C1)N2c1ccnc(C#CCN2CC3(CCCOC3)C2)c1 [Compound 175]
< 10 nM

How about this compound: Nc1nnc(-c2ccccc2O)cc1N1CC2CCC(C1)N2c1ccnc(C#CCN2CC3CC(C2)C3O)c1 (stereo not drawn) [Compound 126]
< 10 nM

Check Nc1nnc(-c2ccccc2O)cc1N1CC2CCC(C1)N2c1ccnc(C#CCN2CCCC(F)(F)CC2)c1 [Compound 189] too.
< 10 nM

Next entry: CC[C@H]1COCCN1CC#Cc1cc(N2C3CCC2CN(c2cc(-c4ccccc4O)nnc2N)C3)ccn1 [Compound 64]
10 to 100 nM

Could you do the same for Nc1nnc(-c2ccccc2O)cc1N1CC2CCC(C1)N2c1ccnc(C#CCN2CC3CCOC3C2)c1 (stereo not drawn) [Compound 81] , please?
< 10 nM

Item: Nc1nnc(-c2ccccc2O)cc1N1CC2CCC(C1)N2c1ccnc(C#CCN2CC3CCCC2C3)c1 (stereo not drawn) [Compound 125]
< 10 nM

Ok, now CN(CC#Cc1cc(N2C3CCC2CN(c2cc(-c4ccccc4O)nnc2N)C3)ccn1)C1CCS(=O)(=O)C1 (stereo not drawn) [Compound 51]
> 100 nM

And the next one, Nc1nnc(-c2ccccc2O)cc1N1CC2CCC(C1)N2c1ccnc(C#CCN2CCC(N3CCOCC3)C2)c1 (stereo not drawn) [Compound 80] ?
< 10 nM

Same read-out for CC1CN(CC#Cc2cc(N3C4CCC3CN(c3cc(-c5ccccc5O)nnc3N)C4)ccn2)C1 [Compound 172] ?
10 to 100 nM

// query: Nc1nnc(-c2ccccc2O)cc1N1CC2CCC(C1)N2c1ccnc(C#CCN2CCCCC(O)C2)c1 (stereo not drawn) [Compound 242]
< 10 nM

// next record Nc1nnc(-c2ccccc2O)cc1N1CC2CCC(C1)N2c1ccnc(C#CCN2CC(C(F)(F)F)C2)c1 [Compound 232]
< 10 nM

What do we get for CC1CN(CC#Cc2cc(N3C4CCC3CN(c3cc(-c5ccccc5O)nnc3N)C4)ccn2)C1C (stereo not drawn) [Compound 180] ?
< 10 nM

Item: Nc1nnc(-c2ccccc2O)cc1N1CC2CCC(C1)N2c1ccnc(C#CCCN2CCCCCC2)c1 [Compound 222]
< 10 nM

Another compound to look at: Nc1nnc(-c2ccccc2O)cc1N1CC2CCC(C1)N2c1ccnc(C#CCC2CCCN2)c1 (stereo not drawn) [Compound 16]
10 to 100 nM

Please do the same for Nc1nnc(-c2ccccc2O)cc1N1CC2CCC(C1)N2c1ccnc(C#CCN2CC(C(F)F)C2)c1 [Compound 95] as well.
< 10 nM

// query: Nc1nnc(-c2ccccc2O)cc1N1CC2CCC(C1)N2c1ccnc(C#CCN2CCC[C@@H]3OCC[C@@H]32)c1 [Compound 90]
10 to 100 nM

Can you handle Nc1nnc(-c2ccccc2O)cc1N1CC2CCC(C1)N2c1ccnc(C#CCOC2CCCNC2)c1 (stereo not drawn) [Compound 12] next?
10 to 100 nM

Next compound up: CC1(CO)CCCN(CC#Cc2cc(N3C4CCC3CN(c3cc(-c5ccccc5O)nnc3N)C4)ccn2)CC1 (stereo not drawn) [Compound 197]
< 10 nM

Check Nc1nnc(-c2ccccc2O)cc1N1CC2CCC(C1)N2c1ccnc(C#CCN2CC[C@@]3(O)C[C@H]3C2)c1 [Compound 117] too.
10 to 100 nM
